Recorded measurements of pIC50, one per entry
measurement.target: TYK2 (Homo sapiens, UniProt P29597)
Construct: endogenous in cells
Sequence (P29597 whole entry): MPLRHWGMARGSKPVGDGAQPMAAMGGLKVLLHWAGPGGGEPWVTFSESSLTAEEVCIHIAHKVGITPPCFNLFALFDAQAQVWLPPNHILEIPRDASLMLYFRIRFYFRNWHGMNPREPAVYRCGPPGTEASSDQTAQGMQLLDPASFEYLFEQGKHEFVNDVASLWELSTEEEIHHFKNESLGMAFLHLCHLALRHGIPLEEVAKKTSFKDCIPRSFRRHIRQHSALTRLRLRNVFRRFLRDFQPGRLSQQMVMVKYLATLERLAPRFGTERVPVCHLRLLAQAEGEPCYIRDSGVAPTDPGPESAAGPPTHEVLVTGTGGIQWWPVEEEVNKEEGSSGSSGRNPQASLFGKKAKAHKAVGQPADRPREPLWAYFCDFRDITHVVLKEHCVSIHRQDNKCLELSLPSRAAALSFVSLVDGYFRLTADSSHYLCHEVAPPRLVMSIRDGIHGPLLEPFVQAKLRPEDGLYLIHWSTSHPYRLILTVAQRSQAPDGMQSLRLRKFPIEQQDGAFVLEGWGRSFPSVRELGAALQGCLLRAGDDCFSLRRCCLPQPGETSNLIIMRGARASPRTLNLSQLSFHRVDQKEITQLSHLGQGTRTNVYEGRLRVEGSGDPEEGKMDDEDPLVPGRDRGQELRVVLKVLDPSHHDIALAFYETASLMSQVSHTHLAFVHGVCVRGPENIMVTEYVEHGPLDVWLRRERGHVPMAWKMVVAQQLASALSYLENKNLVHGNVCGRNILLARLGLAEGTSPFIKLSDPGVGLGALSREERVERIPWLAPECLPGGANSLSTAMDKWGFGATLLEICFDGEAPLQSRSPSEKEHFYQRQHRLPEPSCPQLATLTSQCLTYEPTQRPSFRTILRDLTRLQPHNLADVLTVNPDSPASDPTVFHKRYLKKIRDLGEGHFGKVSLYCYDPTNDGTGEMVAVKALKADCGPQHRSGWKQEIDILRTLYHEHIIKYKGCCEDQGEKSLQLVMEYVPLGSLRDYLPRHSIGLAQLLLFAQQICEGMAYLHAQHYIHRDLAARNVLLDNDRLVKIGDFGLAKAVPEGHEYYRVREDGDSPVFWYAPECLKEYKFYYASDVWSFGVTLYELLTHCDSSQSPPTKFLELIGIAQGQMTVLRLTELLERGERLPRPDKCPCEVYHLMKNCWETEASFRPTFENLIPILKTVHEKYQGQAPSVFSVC
assay.overview: Kinobeads assay, TYK2
assay.conditions: mixed Molt4/Ramos lysate, read-out: Inhibition values (IC50) TYK2
pIC50: −log10 of the molar value.
observation.type: pIC50

compound	value.measured
OCCn1cc(Nc2ncc(F)c(N[C@H](CO)c3cc(F)cc(F)c3)n2)cn1 [Compound 159]	6.00 to 7.00
CN(CC#N)C(=O)Cn1cc(Nc2ncc(Cl)c(N[C@H](CO)c3ccccc3)n2)cn1 [Compound 70]	6.00 to 7.00
Cc1cnc(Nc2cnn(CC(F)F)c2)nc1N[C@H](CO)c1cc(F)cc(F)c1 [Compound 167]	5.00 to 6.00
CN(C)C(=O)C(Nc1nc(Nc2cnn(CCO)c2)ncc1Cl)c1ccccc1F (centres unmarked) [Compound 127]	5.00 to 6.00
C[C@@H](CO)NC(=O)Cn1cc(Nc2ncc(Cl)c(N[C@H](CO)c3ccccc3F)n2)cn1 [Compound 116]	6.00 to 7.00
COCCNC(=O)[C@@H](Nc1nc(Nc2cnn(CCO)c2)ncc1Cl)c1ccccc1 [Compound 48]	5.00 to 6.00
Cn1cc(Nc2ncc(Cl)c(NC(CO)c3cccc(F)c3)n2)cn1 (centres unmarked) [Compound 40]	5.00 to 6.00
Cn1cc(Nc2ncc(Cl)c(N[C@H](CO)c3cc(F)cc(F)c3)n2)cn1 [Compound 142]	5.00 to 6.00
COc1ccccc1[C@@H](CO)Nc1nc(Nc2cnn(CCO)c2)ncc1Cl [Compound 76]	6.00 to 7.00
Cn1cc(Nc2ncc(Cl)c(N[C@H](C(=O)NCCO)c3ccccc3)n2)cn1 [Compound 46]	5.00 to 6.00
Cn1cc(Nc2ncc(Cl)c(NC(CO)c3cccc(N4CC5(COC5)C4)c3)n2)cn1 (centres unmarked) [Compound 53]	≤ 5.00

* * *

measurement.target: JAK1 (Homo sapiens, UniProt P23458)
Construct: endogenous in cells
Sequence (P23458 whole entry): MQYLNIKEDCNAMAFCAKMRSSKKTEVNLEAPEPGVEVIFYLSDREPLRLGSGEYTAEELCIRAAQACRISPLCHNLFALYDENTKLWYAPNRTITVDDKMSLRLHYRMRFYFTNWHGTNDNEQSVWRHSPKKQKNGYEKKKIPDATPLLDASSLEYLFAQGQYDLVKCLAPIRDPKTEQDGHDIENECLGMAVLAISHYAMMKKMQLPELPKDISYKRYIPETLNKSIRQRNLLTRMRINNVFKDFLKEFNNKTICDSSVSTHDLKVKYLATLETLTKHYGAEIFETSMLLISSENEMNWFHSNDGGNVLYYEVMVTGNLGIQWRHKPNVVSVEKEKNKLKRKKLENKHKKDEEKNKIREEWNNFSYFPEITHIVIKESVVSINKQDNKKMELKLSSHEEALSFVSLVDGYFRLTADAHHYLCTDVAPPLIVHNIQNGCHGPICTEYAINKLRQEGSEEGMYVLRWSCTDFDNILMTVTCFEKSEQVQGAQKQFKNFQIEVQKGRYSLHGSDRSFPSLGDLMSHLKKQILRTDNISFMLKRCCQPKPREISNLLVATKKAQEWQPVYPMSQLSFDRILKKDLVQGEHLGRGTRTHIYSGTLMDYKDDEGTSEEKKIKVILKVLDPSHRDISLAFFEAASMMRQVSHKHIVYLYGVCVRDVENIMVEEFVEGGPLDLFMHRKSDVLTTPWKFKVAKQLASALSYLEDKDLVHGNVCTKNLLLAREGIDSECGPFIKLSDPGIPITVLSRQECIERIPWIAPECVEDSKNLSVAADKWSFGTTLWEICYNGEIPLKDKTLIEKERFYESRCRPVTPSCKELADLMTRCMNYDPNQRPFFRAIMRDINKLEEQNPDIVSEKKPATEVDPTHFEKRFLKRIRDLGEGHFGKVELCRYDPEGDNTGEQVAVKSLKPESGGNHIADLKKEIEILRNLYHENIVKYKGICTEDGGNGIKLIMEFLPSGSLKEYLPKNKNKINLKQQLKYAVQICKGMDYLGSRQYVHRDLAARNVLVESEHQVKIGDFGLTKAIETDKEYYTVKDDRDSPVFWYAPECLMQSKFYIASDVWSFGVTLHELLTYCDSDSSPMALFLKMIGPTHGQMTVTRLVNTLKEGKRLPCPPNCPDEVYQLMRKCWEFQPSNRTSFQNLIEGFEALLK
assay.overview: Kinobeads assay, JAK1
assay.conditions: mixed Molt4/Ramos lysate, read-out: Inhibition values (IC50) JAK1
pIC50: −log10 of the molar value.
The entries below come with measured pIC50 values attached.
observation.type: pIC50

compound	measurement.target	value.measured
O=C(Cn1cc(Nc2ncc(Cl)c(N[C@H](CO)c3ccccc3F)n2)cn1)N1CCOCC1	JAK1 (Homo sapiens, UniProt P23458)	6.00 to 7.00
CNC(=O)Cn1cc(Nc2ncc(Cl)c(N[C@H](CO)c3ccccc3)n2)cn1	JAK1 (Homo sapiens, UniProt P23458)	6.00 to 7.00
OCCn1cc(Nc2ncc(Cl)c(N[C@H](CO)c3ccccc3F)n2)cn1	JAK1 (Homo sapiens, UniProt P23458)	6.00 to 7.00
Cn1cc(Nc2ncc(Cl)c(N[C@H](CO)c3cc(F)cc(-c4cnn(C)c4)c3)n2)cn1	JAK1 (Homo sapiens, UniProt P23458)	5.00 to 6.00
CC(C)NC(=O)Cn1cc(Nc2ncc(Cl)c(N[C@H](CO)c3ccccc3F)n2)cn1	JAK1 (Homo sapiens, UniProt P23458)	6.00 to 7.00
CCn1cc(Nc2ncc(Cl)c(N[C@H](CO)c3cccnc3)n2)cn1	JAK1 (Homo sapiens, UniProt P23458)	5.00 to 6.00
COc1ccccc1[C@@H](CO)Nc1nc(Nc2cnn(CC(=O)N3CCOCC3)c2)ncc1Cl	JAK1 (Homo sapiens, UniProt P23458)	6.00 to 7.00
O=C([C@@H](Nc1nc(Nc2cnn(CCO)c2)ncc1Cl)c1ccccc1)N1CCCC1	JAK1 (Homo sapiens, UniProt P23458)	5.00 to 6.00
OCCn1cc(Nc2ncc(Cl)c(N[C@@H](CO)c3ccccc3)n2)cn1	JAK1 (Homo sapiens, UniProt P23458)	5.00 to 6.00

* * *

The entries below are paired with their reported pIC50.
measurement.target: JAK1 (Homo sapiens)
Construct: endogenous in cells
assay.overview: Kinobeads assay, JAK1
assay.conditions: mixed Molt4/Ramos lysate, read-out: Inhibition values (IC50) JAK1
pIC50: −log10 of the molar value.

molecule	pIC50
CC[C@@H](Nc1nc(Nc2cnn(C)c2)ncc1Cl)c1ccccc1	5.00 to 6.00
OCCn1cc(Nc2ncc(Cl)c(NC(CO)c3ccccc3Cl)n2)cn1 (stereo not drawn)	6.00 to 7.00
CNC(=O)Cn1cc(Nc2ncc(Cl)c(NC(CO)c3cc(F)cc(F)c3)n2)cn1 (stereo not drawn)	6.00 to 7.00

* * *

# Lookup of reported IC50 keyed by entry
measurement.target: TYK2 (Homo sapiens)
Construct: endogenous in cells
assay.overview: Kinobeads assay, TYK2
assay.conditions: mixed Molt4/Ramos lysate, read-out: Inhibition values (IC50) TYK2
Method: The compounds of the present invention as described in the previous examples were tested in a Kinobeads™ assay as described for ZAP-70 (WO-A 2007/137867). […] Bound proteins were then eluted and the presence of JAK1, JAK2, JAK3 and TYK2 was detected and quantified using specific antibodies in a dot blot procedure and the Odyssey infrared detection system. Dose response curves for individual kinases were generated and IC50 values calculated. […]
observation.type: IC50

molecule	observation.type	value.measured
CC(C)n1cc(Nc2ncc(Cl)c(N[C@H](CO)c3ccccc3F)n2)cn1	IC50	1000 to 10000 nM
Cc1cnc(Nc2cnn(CC(=O)N3CCOCC3)c2)nc1NC(CO)c1c(F)cccc1F (stereo not drawn)	IC50	100 to 1000 nM
CCC(Nc1nc(Nc2cnn(CC(N)=O)c2)ncc1Cl)c1ccccc1F (stereo not drawn)	IC50	1000 to 10000 nM
CNC(=O)Cn1cc(Nc2ncc(Cl)c(NC(CO)c3c(F)cccc3F)n2)cn1 (stereo not drawn)	IC50	1000 to 10000 nM
NC(=O)Cn1cc(Nc2ncc(Cl)c(N[C@H](CO)c3cc(F)ccc3F)n2)cn1	IC50	100 to 1000 nM
Cn1cc(Nc2ncc(Cl)c(N[C@H](CO)c3ccccc3)n2)cn1	IC50	1000 to 10000 nM

* * *

measurement.target: TYK2 (Homo sapiens, UniProt P29597)
Construct: endogenous in cells
assay.overview: Kinobeads assay, TYK2
assay.conditions: mixed Molt4/Ramos lysate, read-out: Inhibition values (IC50) TYK2

molecule	IC50
NC(=O)Cn1cc(Nc2ncc(F)c(N[C@H](CO)c3ccccc3)n2)cn1	1 to 10 µM
CCn1cc(Nc2ncc(Cl)c(N[C@H](CO)c3ccccc3F)n2)cn1	1 to 10 µM
Cn1cc(Nc2ncc(Cl)c(N[C@H](CO)c3cc(F)ccc3F)n2)cn1	0.1 to 1 µM
COC[C@@H](Nc1nc(Nc2cnn(C)c2)ncc1Cl)c1ccccc1	≥ 10 µM
Cn1cc(Nc2ncc(Cl)c(NC(CO)c3cccc(Br)c3)n2)cn1 (stereo not shown)	1 to 10 µM
CC[C@@H](Nc1nc(Nc2cnn(C)c2)ncc1Cl)c1ccccc1	≥ 10 µM
CCn1cc(Nc2ncc(Cl)c(N[C@H](CO)c3ccccc3OC)n2)cn1	1 to 10 µM

* * *

measurement.target: JAK3 (Homo sapiens, UniProt P52333)
Construct: endogenous in cells
Sequence (P52333 whole entry): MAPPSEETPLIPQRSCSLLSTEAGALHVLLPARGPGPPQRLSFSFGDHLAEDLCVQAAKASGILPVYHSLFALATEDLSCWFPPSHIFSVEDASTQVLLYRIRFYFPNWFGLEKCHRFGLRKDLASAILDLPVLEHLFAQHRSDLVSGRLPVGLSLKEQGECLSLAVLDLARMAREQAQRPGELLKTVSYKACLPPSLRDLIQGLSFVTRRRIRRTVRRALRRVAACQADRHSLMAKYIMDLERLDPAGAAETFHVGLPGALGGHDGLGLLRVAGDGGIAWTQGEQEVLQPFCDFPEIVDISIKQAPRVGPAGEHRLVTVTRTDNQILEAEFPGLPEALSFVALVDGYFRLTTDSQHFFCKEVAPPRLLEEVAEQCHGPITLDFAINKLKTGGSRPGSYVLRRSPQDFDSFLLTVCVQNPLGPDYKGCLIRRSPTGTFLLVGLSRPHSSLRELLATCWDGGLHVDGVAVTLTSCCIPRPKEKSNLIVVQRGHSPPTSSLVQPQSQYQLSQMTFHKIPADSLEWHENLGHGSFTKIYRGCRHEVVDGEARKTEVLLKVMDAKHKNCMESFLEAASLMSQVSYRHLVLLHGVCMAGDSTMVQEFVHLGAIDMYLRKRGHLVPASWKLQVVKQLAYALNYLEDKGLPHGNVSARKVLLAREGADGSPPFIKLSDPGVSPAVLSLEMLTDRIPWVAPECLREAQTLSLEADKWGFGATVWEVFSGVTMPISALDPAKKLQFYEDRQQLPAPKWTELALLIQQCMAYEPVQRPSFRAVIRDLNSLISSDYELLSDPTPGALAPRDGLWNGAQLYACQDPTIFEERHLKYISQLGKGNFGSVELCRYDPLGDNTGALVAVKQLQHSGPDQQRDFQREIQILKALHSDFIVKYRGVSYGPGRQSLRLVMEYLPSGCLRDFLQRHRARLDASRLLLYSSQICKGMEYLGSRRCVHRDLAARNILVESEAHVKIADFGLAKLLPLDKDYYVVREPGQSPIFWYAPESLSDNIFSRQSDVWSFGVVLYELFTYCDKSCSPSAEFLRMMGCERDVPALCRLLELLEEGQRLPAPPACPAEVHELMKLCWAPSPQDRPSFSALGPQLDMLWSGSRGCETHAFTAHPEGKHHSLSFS
assay.overview: Kinobeads assay, JAK3
assay.conditions: mixed Molt4/Ramos lysate, read-out: Inhibition values (IC50) JAK3
pIC50: −log10 of the molar value.

compound	measurement.target	pIC50
O=C(Cn1cc(Nc2ncc(Cl)c(N[C@H](CO)c3cccnc3)n2)cn1)N1CCOCC1	JAK3 (Homo sapiens, UniProt P52333)	> 7.00
Cn1ccc(Nc2ncc(Cl)c(N[C@H](CO)c3ccccc3)n2)n1	JAK3 (Homo sapiens, UniProt P52333)	6.00 to 7.00
CNC(=O)Cn1cc(Nc2ncc(Cl)c(N[C@H](CO)c3cccc(OC)c3)n2)cn1	JAK3 (Homo sapiens, UniProt P52333)	> 7.00

* * *

Here the recorded pIC50 is given for each entry.
measurement.target: JAK1 (Homo sapiens, UniProt P23458)
Construct: endogenous in cells
assay.overview: Kinobeads assay, JAK1
assay.conditions: mixed Molt4/Ramos lysate, read-out: Inhibition values (IC50) JAK1
Method: After the incubation time the beads with captured proteins were separated from the lysate. Bound proteins were then eluted and the presence of JAK1, JAK2, JAK3 and TYK2 was detected and quantified using specific antibodies in a dot blot procedure and the Odyssey infrared detection system. Dose response curves for individual kinases were generated and IC50 values calculated. […]
pIC50: −log10 of the molar value.

molecule	measurement.target	pIC50
COc1cccc([C@@H](CO)Nc2nc(Nc3cnn(CC(=O)N4CCOCC4)c3)ncc2Cl)c1	JAK1 (Homo sapiens, UniProt P23458)	6.00 to 7.00
CNC(=O)Cn1cc(Nc2ncc(Cl)c(N[C@H](CO)c3cccc(-c4cnn(C)c4)c3)n2)cn1	JAK1 (Homo sapiens, UniProt P23458)	5.00 to 6.00
CC(C)(C(N)=O)n1cc(Nc2ncc(Cl)c(N[C@H](CO)c3ccccc3F)n2)cn1	JAK1 (Homo sapiens, UniProt P23458)	5.00 to 6.00
Cn1cc(Nc2ncc(Cl)c(NC(CO)c3cccc(F)c3)n2)cn1 (stereo not drawn)	JAK1 (Homo sapiens, UniProt P23458)	5.00 to 6.00
Cn1cc(Nc2ncc(Cl)c(N[C@@H](CO)c3ccccc3)n2)cn1	JAK1 (Homo sapiens, UniProt P23458)	< 5.00
CN(CC#N)C(=O)Cn1cc(Nc2ncc(Cl)c(N[C@H](CO)c3ccccc3)n2)cn1	JAK1 (Homo sapiens, UniProt P23458)	6.00 to 7.00
NC(=O)Cn1cc(Nc2ncc(Cl)c(NC(CO)c3cc(F)ccc3F)n2)cn1 (stereo not drawn)	JAK1 (Homo sapiens, UniProt P23458)	> 7.00
CN1CCC(n2cc(Nc3ncc(Cl)c(N[C@H](CO)c4ccccc4)n3)cn2)C1=O (stereo partly drawn)	JAK1 (Homo sapiens, UniProt P23458)	6.00 to 7.00
Cn1ccc(Nc2ncc(Cl)c(N[C@H](CO)c3ccccc3)n2)n1	JAK1 (Homo sapiens, UniProt P23458)	< 5.00
CNC(=O)Cn1cc(Nc2ncc(Cl)c(N[C@H](CCO)c3ccccc3)n2)cn1	JAK1 (Homo sapiens, UniProt P23458)	5.00 to 6.00
CC(C)OC(=O)Cn1cc(Nc2ncc(Cl)c(N[C@H](CO)c3ccccc3)n2)cn1	JAK1 (Homo sapiens, UniProt P23458)	5.00 to 6.00
CCOC(=O)Cn1cc(Nc2ncc(Cl)c(N[C@H](CO)c3ccccc3)n2)cn1	JAK1 (Homo sapiens, UniProt P23458)	6.00 to 7.00
Cn1cc(Nc2ncc(Cl)c(N[C@H](CO)c3cccc(N4CCOCC4=O)c3)n2)cn1	JAK1 (Homo sapiens, UniProt P23458)	5.00 to 6.00
Cn1cc(-c2cccc([C@@H](CO)Nc3nc(Nc4cnn(CCO)c4)ncc3Cl)c2)cn1	JAK1 (Homo sapiens, UniProt P23458)	5.00 to 6.00
OCCn1ccc(Nc2ncc(Cl)c(NC(CO)c3ccccc3F)n2)n1 (stereo not drawn)	JAK1 (Homo sapiens, UniProt P23458)	< 5.00
CN(C)C(=O)Cn1cc(Nc2ncc(Cl)c(N[C@H](CO)c3ccccc3)n2)cn1	JAK1 (Homo sapiens, UniProt P23458)	6.00 to 7.00
CN(C)CCNC(=O)Cn1cc(Nc2ncc(Cl)c(N[C@H](CO)c3ccccc3)n2)cn1	JAK1 (Homo sapiens, UniProt P23458)	6.00 to 7.00
Cn1cc(Nc2ncc(Cl)c(N[C@H](CO)c3ccccc3)n2)cn1	JAK1 (Homo sapiens, UniProt P23458)	5.00 to 6.00
CNC(=O)Cn1cc(Nc2ncc(F)c(N[C@H](CO)c3cccc(-c4cnn(C)c4)c3)n2)cn1	JAK1 (Homo sapiens, UniProt P23458)	< 5.00
NC(=O)Cn1cc(Nc2ncc(Cl)c(N[C@H](CO)c3cc(F)cc(F)c3)n2)cn1	JAK1 (Homo sapiens, UniProt P23458)	> 7.00
Cn1cc(Nc2ncc(Cl)c(NC(CO)c3ccccc3)n2)cn1 (stereo not drawn)	JAK1 (Homo sapiens, UniProt P23458)	5.00 to 6.00
Cc1cnc(Nc2cnn(CC(F)F)c2)nc1N[C@H](CO)c1cc(F)cc(F)c1	JAK1 (Homo sapiens, UniProt P23458)	5.00 to 6.00
OCCn1cc(Nc2ncc(Cl)c(N[C@H](CO)c3ccccn3)n2)cn1	JAK1 (Homo sapiens, UniProt P23458)	6.00 to 7.00
O=C([C@@H](Nc1nc(Nc2cnn(CCO)c2)ncc1Cl)c1ccccc1)N1CCCCC1	JAK1 (Homo sapiens, UniProt P23458)	< 5.00
OC[C@@H](Nc1nc(Nc2cnn(CC(F)F)c2)ncc1Cl)c1ccccc1F	JAK1 (Homo sapiens, UniProt P23458)	6.00 to 7.00
OCCn1cc(Nc2ncc(Cl)c(N[C@H](CO)c3cccc(F)c3)n2)cn1	JAK1 (Homo sapiens, UniProt P23458)	6.00 to 7.00
Cc1cnc(Nc2cnn(C)c2)nc1N[C@H](CO)c1cccc(-c2cnn(C)c2)c1	JAK1 (Homo sapiens, UniProt P23458)	< 5.00
OCCn1cc(Nc2ncc(Cl)c(N[C@H](CO)c3cccnc3)n2)cn1	JAK1 (Homo sapiens, UniProt P23458)	6.00 to 7.00
CCn1cc(Nc2ncc(Cl)c(N[C@H](CO)c3ccccc3OC)n2)cn1	JAK1 (Homo sapiens, UniProt P23458)	6.00 to 7.00
Cn1cc(Nc2ncc(Cl)c(NC(CO)c3cccc(Br)c3)n2)cn1 (stereo not drawn)	JAK1 (Homo sapiens, UniProt P23458)	5.00 to 6.00
